This listing pairs molecules with measured IC50.
target: BRD4 BD1 (Homo sapiens); construct: HEK293 cells were transfected using NanoLuc-BRD4-BD1 or NanoLuc-BRD4-BD2 fusion vectors; host or cells: HEK293; assay: NanoBRET bromodomain assay, BRD4 BD1; assay type: cell-based; conditions: HEK293 cells transfected with NanoLuc-BRD4-BD1

Cc1cccc(C)c1Oc1cn(C)c(=O)cc1-c1cn(C)c(=O)c2[nH]c(-c3ccc(S(C)(=O)=O)cc3)cc12 ... > 1000 nM

Look up and report IC50, with BRD4 BD1 (Homo sapiens) as system, for Cc1cccc(C)c1Oc1cn(C)c(=O)cc1-c1cn(C)c(=O)c2[nH]c(-c3ccc(C(F)(F)F)cc3)cc12
> 1000 nM

Look up and report IC50, with BRD4 BD1 (Homo sapiens) as system, for Cc1cccc(C)c1Oc1cn(C)c(=O)cc1-c1cn(C)c(=O)c2[nH]c(-c3ccc(C(N)=O)cc3)cc12
> 1000 nM

Look up and report IC50, with BRD4 BD1 (Homo sapiens) as system, for Cc1cc(-c2cc3c(-c4cc(=O)n(C5CC5)cc4Oc4c(C)cccc4C)cn(C)c(=O)c3[nH]2)cc(C)n1
> 1000 nM

Look up and report IC50, with BRD4 BD1 (Homo sapiens) as system, for Cc1cccc(C)c1Oc1cn(C)c(=O)cc1-c1cn(C)c(=O)c2[nH]c(-c3cn(C(C)C)nc3C)cc12
500 to 1000 nM

Look up and report IC50, with BRD4 BD1 (Homo sapiens) as system, for Cc1cccc(C)c1Oc1cn(C)c(=O)cc1-c1cn(C)c(=O)c2[nH]c(-c3cn(C(C)C)nc3C#N)cc12
50 to 500 nM

Look up and report IC50, with BRD4 BD1 (Homo sapiens) as system, for Cc1cccc(C)c1Oc1cn(C)c(=O)cc1-c1cn(C)c(=O)c2[nH]c(-c3ccccc3C#N)cc12
> 1000 nM

* * *

target: BRD4 BD1 (Homo sapiens, UniProt O60885); construct: HEK293 cells were transfected using NanoLuc-BRD4-BD1 or NanoLuc-BRD4-BD2 fusion vectors; assay: NanoBRET bromodomain assay, BRD4 BD1; conditions: HEK293 cells transfected with NanoLuc-BRD4-BD1
pIC50: −log10 of the molar value.
This listing pairs compounds with measured pIC50.

Consider the reported pIC50 for these compounds:
C#Cc1cn(C)c(=O)cc1-c1cn(C)c(=O)c2[nH]c(-c3cnn(C(C)C)c3)cc12 [Example 56] ... 6.30 to 7.30
Cc1ccc(C(F)(F)F)cc1-c1cc2c(-c3cc(=O)n(C)cc3Oc3c(C)cccc3C)cn(C)c(=O)c2[nH]1 [Example 21] ... < 6.00

Look up and report pIC50, with BRD4 BD1 (Homo sapiens, UniProt O60885) as system, for Cc1cccc(C)c1Oc1cn(C)c(=O)cc1-c1cn(C)c(=O)c2[nH]c(-c3cn(C)nc3C)cc12 [Example 12]
6.00 to 6.30

* * *

assay: Balb/c mouse pharmacokinetics after oral (PO) dosing; format: in vivo; conditions: male, plasma, 30 mg/kg, Individual
outcome measure: bioavailability (%)

a: Cc1cc(-c2cc3c(-c4cc(=O)n(C5CC5)cc4Oc4c(C)cccc4C)cn(C)c(=O)c3[nH]2)cc(C)n1
b: Cc1cccc(C)c1Oc1cn(C)c(=O)cc1-c1cn(C)c(=O)c2[nH]c(-c3cn(C4COC4)nc3C)cc12
Short answer wanted: higher bioavailability, a or b ? Label of pick, please.
a
